Where do the numbers come from? From paper PMC5654968.

assay: Plasma PK of major maoto compounds by LC-MS/MS after oral administration of maoto; format: in vivo, rat; details: Sprague-Dawley, rat, plasma, po, 1 g/kg
measurement_label: AUC(0-t) (ng·h/mL)
Respond numerically; units are ng·h/mL and should not be typed.

COc1cc2ccc(=O)oc2cc1O [Scopoletin]; 0.07
CC(C(O)c1ccccc1)N(C)C (racemic) [dl-Methylephedrine]; 18.7

Enquiry: Supply measured AUC(0-t) of CN[C@@H](C)[C@@H](O)c1ccccc1 [d-Pseudoephedrine, d-pseudoephedrine] in your reply.
Return: 183

Enquiry: Using the record for N#C[C@H](O[C@@H]1O[C@H](CO[C@@H]2O[C@H](CO)[C@@H](O)[C@H](O)[C@H]2O)[C@@H](O)[C@H](O)[C@H]1O)c1ccccc1 [Amygdalin] , state its measured AUC(0-t).
Return: 346

----------
format: in vivo, rat; conditions: PM/P (polyI:C+maoto vs polyI:C), 4h
measurement_label: log2FC of plasma level

CCCCCC(O)/C=C/C=C\C/C=C\CCCCCCC(=O)O (stereo not drawn) [15-HETrE]; -0.98
CCCCCC(=O)/C=C/[C@@H]1[C@H](C/C=C\CCCC(=O)O)[C@@H](O)C[C@H]1O [8-iso-15-keto-PGF2α]; -0.99
CCCCC[C@H](O)/C=C/[C@@H]1[C@@H](C/C=C\CCCC(=O)O)[C@@H](O)C[C@H]1O [PGF2α]; -0.13
CC/C=C\C/C=C\C=C\C(O)CCCCCCCC(=O)O (stereo not drawn) [9-HOTrE]; -1.19
CC/C=C\C/C=C\C/C=C\C/C=C\C/C=C\C=C\C(O)CCC(=O)O (stereo not drawn) [4-HDoHE]; -0.79

Enquiry: Tell me its log2FC of plasma level given CCCCCC(=O)/C=C/C=C\CCCCCCCCCC(=O)O [15-KEDE] as the entry.
Return: -1.15

Enquiry: Report log2FC of plasma level, nothing else, for this compound: CC/C=C\C/C=C\C/C=C\C=C\C(O)C/C=C\C/C=C\CCC(=O)O (stereo not drawn) [10-HDoHE]
Return: -0.60

Enquiry: Given the compound CCCCC/C=C\C=C\C(O)CCCCCCCC(=O)O (stereo not drawn) [9-HODE] , write its reported log2FC of plasma level.
Return: -0.97

Enquiry: Supply log2FC of plasma level value. Item: CCCCC/C=C\C=C\C(O)C/C=C\C/C=C\CCCC(=O)O (stereo not drawn) [11-HETE]
Return: -0.66

----------
Reported AUC(0-t) values for a set of compounds
assay: Plasma PK of major maoto compounds by LC-MS/MS after oral administration of maoto; type: in vivo, rat; conditions: Sprague-Dawley, rat, plasma, po, 2 g/kg

Answered cases to consult:
CN[C@@H](C)[C@@H](O)c1ccccc1 [d-Pseudoephedrine, d-pseudoephedrine]; 559 ng·h/mL
Oc1cc(O)c2c(c1)O[C@H](c1ccc(O)c(O)c1)[C@H](O)[C@H]2c1c(O)cc(O)c2c1O[C@H](c1ccc(O)c(O)c1)[C@H](O)C2 [Procyanidin B2]; 0.172 ng·h/mL

We next turn to a different compound, shown below.
Enquiry: # return recorded AUC(0-t) for entry O=C(/C=C/c1ccc(O)cc1)c1ccc(O)cc1O [Isoliquiritigenin]
Return: 31 ng·h/mL

----------
assay type: in vivo, rat; conditions: PM/P (polyI:C+maoto vs polyI:C), 2h
Each entry below carries its recorded log2FC of plasma level.
# print the numeric value only

CC/C=C\C/C=C\C/C=C\C/C=C\C=C\C(O)C/C=C\CCC(=O)O (stereo not drawn); -0.17

Enquiry: Read off the recorded log2FC of plasma level for CCCCCC(O)C(O)C/C=C\CCCCCCCC(=O)O (stereo not drawn)
Return: 0.26

Enquiry: Return the recorded log2FC of plasma level value; entry: CCCC(O)C/C=C\C/C=C\C/C=C\C/C=C\CCCC(=O)O (stereo not drawn)
Return: 0.42
